Listing of entries alongside the reported zone score, S. aureus ATCC 29213.
test system: S. aureus (ATCC 29213); assay: Zone of inhibition screen, 96 well agar array format; format: cell-based; design: scale not given here; details: zone of inhibition relative to 1 mg/ml p-chlorobiphenylvancomycin

{"columns": ["compound", "zone score, S. aureus ATCC 29213"],
 "data": [
  ["CC1OC(OC2C(Oc3c4cc5cc3Oc3ccc(cc3Cl)C(O)C3NC(=O)C(NC(=O)C5NC(=O)C(CC(N)=O)NC(=O)C(NC(=O)c5ccccc5F)C(O)c5ccc(c(Cl)c5)O4)c4ccc(O)c(c4)-c4c(O)cc(O)cc4C(C(=O)O)NC3=O)OC(CO)C(O)C2O)CC(C)(NCc2ccc(-c3ccc(Cl)cc3)cc2)C1O (stereo not drawn)", 2],
  ["CC1OC(OC2C(Oc3c4cc5cc3Oc3ccc(cc3Cl)C(O)C3NC(=O)C(NC(=O)C5NC(=O)C(CC(N)=O)NC(=O)C(NC(=O)c5ccc(=O)[nH]n5)C(O)c5ccc(c(Cl)c5)O4)c4ccc(O)c(c4)-c4c(O)cc(O)cc4C(C(=O)O)NC3=O)OC(CO)C(O)C2O)CC(C)(NCc2ccc(-c3ccc(Cl)cc3)cc2)C1O (stereo not drawn)", 2],
  ["CC1OC(OC2C(Oc3c4cc5cc3Oc3ccc(cc3Cl)C(O)C3NC(=O)C(NC(=O)C5NC(=O)C(CC(N)=O)NC(=O)C(NC(=O)c5c[nH]cn5)C(O)c5ccc(c(Cl)c5)O4)c4ccc(O)c(c4)-c4c(O)cc(O)cc4C(C(=O)O)NC3=O)OC(CO)C(O)C2O)CC(C)(NCc2ccc(-c3ccc(Cl)cc3)cc2)C1O (stereo not drawn)", 2],
  ["CC1OC(OC2C(Oc3c4cc5cc3Oc3ccc(cc3Cl)C(O)C3NC(=O)C(NC(=O)C5NC(=O)C(CC(N)=O)NC(=O)C(NC(=O)C5CCCO5)C(O)c5ccc(c(Cl)c5)O4)c4ccc(O)c(c4)-c4c(O)cc(O)cc4C(C(=O)O)NC3=O)OC(CO)C(O)C2O)CC(C)(NCc2ccc(-c3ccc(Cl)cc3)cc2)C1O (stereo not drawn)", 2],
  ["CC1OC(OC2C(Oc3c4cc5cc3Oc3ccc(cc3Cl)C(O)C3NC(=O)C(NC(=O)C5NC(=O)C(CC(N)=O)NC(=O)C(NC(=O)c5ccc(=O)oc5)C(O)c5ccc(c(Cl)c5)O4)c4ccc(O)c(c4)-c4c(O)cc(O)cc4C(C(=O)O)NC3=O)OC(CO)C(O)C2O)CC(C)(NCc2ccc(-c3ccc(Cl)cc3)cc2)C1O (stereo not drawn)", 2],
  ["CCOCCC(=O)N[C@H]1C(=O)N[C@@H](CC(N)=O)C(=O)N[C@H]2C(=O)N[C@H]3C(=O)N[C@H](C(=O)N[C@@H](C(=O)O)c4cc(O)cc(O)c4-c4cc3ccc4O)[C@H](O)c3ccc(c(Cl)c3)Oc3cc2cc(c3O[C@@H]2O[C@H](CO)[C@@H](O)[C@H](O)[C@H]2O[C@@H]2C[C@@](C)(NCc3ccc(-c4ccc(Cl)cc4)cc3)[C@@H](O)[C@@H](C)O2)Oc2ccc(cc2Cl)[C@H]1O", 2]
]}

The origin of these recorded values is patent US6518243B1.
